This listing pairs compounds with measured Resistance Factor vs. 2780CP +10 μM BSO.
Tested on: Human 2780CP cell line
method_summary: MTT cytotoxicity assay, cisplatin-resistant ovarian 2780CP cells, with or without BSO
Type: cell-based
assay_setup: IC50 2780CP with 10 μM BSO / IC50 A2780 without BSO

* N[C@@H]1CCCC[C@H]1N.[OH][Pt+2]([OH])([Cl])[Cl] | 12.4
* N.N.[Cl][Pt][Cl] [Complex 1, cis-diamminedichloroplatinum, reference compound] | 12.1
* [NH2][Pt]([Cl])([Cl])[NH]C1CCCC1 | 19.9
* [NH2][Pt]([Cl])([Cl])[NH]C1CCC1 | 15.5

Below: the item to evaluate.
Return reported Resistance Factor vs. 2780CP +10 μM BSO; argument: `[NH2][Pt]([Cl])([Cl])([Cl])([Cl])[NH]C1CCCCC1`
11.9

====

System: 2008/C13* cell line
method_summary: MTT cytotoxicity assay, cisplatin-resistant ovarian 2008/C13* cells, with or without BSO
Type: cell-based, Human
assay_setup: Table 4; 2008/C13*; BSO at MTC; read-out: IC50 +BSO (MTC)
recorded_endpoint: IC50

Return reported IC50; argument: N.N.[Cl][Pt][Cl] [Complex 1, cis-diamminedichloroplatinum, reference compound]
10.4 µM

====

System: Human 2780CP cell line
method_summary: MTT cytotoxicity assay, cisplatin-resistant ovarian 2780CP cells, with or without BSO
Type: cell-based
Parameters: key: DMF = IC50 without BSO / IC50 with BSO
assay_setup: without BSO (reference)
This listing pairs molecules with measured DMF vs. 2780CP Control (Without BSO).
Hey, just send me the number, nothing else.

Return reported DMF vs. 2780CP Control (Without BSO); argument: [NH2][Pt]([NH2])([Cl])[Cl] [Complex 1]
1.00

Then [NH2][Pt]([Cl])([Cl])([Cl])([Cl])[NH]C1CCCCC1 [Complex 15] ?
1.00

Then [NH2][Pt]([Cl])([Cl])[NH]C1CC1 [Complex 3] ?
1.00

====

Tested on: Human 2780CP cell line
method_summary: MTT cytotoxicity assay, cisplatin-resistant ovarian 2780CP cells, with or without BSO
Format: cell-based
assay_setup: IC50 2780CP with 10 μM BSO / IC50 A2780 without BSO
This listing pairs compounds with measured Resistance Factor vs. 2780CP +10 μM BSO.
Hey, just send me the number, nothing else.

* [Cl][Pt]1([Cl])[NH][C@@H]2CCCC[C@H]2[NH]1 [Complex 2] | 6.59
* [NH2][Pt]([Cl])([Cl])[N]1CCC1 [Complex 9] | 4.38
* [NH2][Pt]([Cl])([Cl])[NH]C1CC1 [Complex 3] | 17.1
* [NH2][Pt]([Cl])([Cl])[NH]C1CCCCC1 [Complex 6] | 11.1
* [NH2][Pt]([Cl])([Cl])[N]1CCCC1 [Complex 10] | 6.91
* [NH2][Pt]([Cl])([Cl])[NH]C1CCCCCCC1 [Complex 8] | 7.75

Below: the item to evaluate.
Return reported Resistance Factor vs. 2780CP +10 μM BSO; argument: [NH2][Pt]([OH])([OH])([Cl])([Cl])[NH]C1CCCCC1 [Complex 16]
5.52

====

System: Human 2780CP cell line
method_summary: MTT cytotoxicity assay, cisplatin-resistant ovarian 2780CP cells, with or without BSO
Format: cell-based
assay_setup: +10 μM BSO; read-out: IC50 (μM) vs. 2780CP +10 μM BSO
This listing pairs compounds with measured log10 of IC50.
log10 IC50, µM

- [NH2][Pt]([Cl])([Cl])[NH]C1CCC1: 1.20
- [NH2][Pt]([Cl])([Cl])[N]1CCCC1: 1.45
- [NH2][Pt]([OH])([OH])([Cl])([Cl])[NH]C1CCCCC1: 1.29

Request - read-out log10 of IC50 | tested on Human 2780CP cell line | compound `[NH2][Pt]([Cl])([Cl])[NH]C1CCCC1`
1.16

Then `[NH2][Pt]([Cl])([Cl])([Cl])([Cl])[NH]C1CCCCC1` ?
1.03

Then `N[C@@H]1CCCC[C@H]1N.[OH][Pt+2]([OH])([Cl])[Cl]` ?
1.19
